Assay: chemical genetic growth profiling, strain panel (AID 1159580);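 further: tested at 20 µM; growth read once vehicle control cultures reached saturation at 30 °C; lower values mean less growth of the strain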
Conditions: S. cerevisiae deletion strains, growth OD, locus YDL074C, strain BRE1
Hit rate of the full screen: of about 5,500 compounds, about 2,000 (36%) were called active. Inconclusive results (about 18%) are left out. No stated cut-off is given here; in the data, active means normalized growth mostly below about 0.91 (no sharp cut-off); inconclusive means no clear call, values can overlap the other calls; inactive means mostly above about 0.92. Some of the results follow.
A correct response names exactly one class from true = active, false = inactive

[[record]]
molecule = "O=c1cccc2ccc(O)c(O)c2c1O"
class_name = "true"

[[record]]
molecule = "CN(C)CCN(Cc1cccs1)c1ccccn1"
class_name = "false"

[[record]]
molecule = "COc1ccc(CN(CCN(C)C)c2ccccn2)cc1"
class_name = "false"

[[record]]
molecule = "C[C@@H]1O[C@@H](O[C@H]2[C@H](Oc3cc(O)c4c(=O)cc(-c5ccc(O)cc5)oc4c3)O[C@H](CO)[C@@H](O)[C@@H]2O)[C@H](O)[C@H](O)[C@H]1O"
class_name = "false"

[[record]]
molecule = "CCCCC[C@H]1C(=O)O[C@H](C)[C@H](NC(=O)c2cccc(NC=O)c2O)C(=O)O[C@@H](C)[C@@H]1OC(=O)CC(C)C"
class_name = "false"


Q. Given CC1(C)S[C@@H]2[C@H](NC(=O)[C@H](N)c3ccccc3)C(=O)N2[C@H]1C(=O)O , state the outcome it received in this test.
A. false

Q. Another molecule to check: COC(=O)[C@@H]1OC(=O)C2OC23[C@@]1(C)CCC1[C@]2(C)C(C[C@H](O)[C@]13C)C(C)(C)[C@H](OC(C)=O)C[C@@H]2OC(C)=O (stereo partly drawn)
A. false

Q. Another molecule to check: COc1cc([C@@H]2c3cc4c(cc3C(OC3O[C@@H]5COC(C)O[C@H]5[C@H](O)[C@H]3O)C3COC(=O)[C@@H]32)OCO4)cc(OC)c1O (stereo partly drawn)
A. false

====

Assay: chemical genetic growth profiling, strain panel (AID 1159580);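 further: tested at 20 µM; growth read once vehicle control cultures reached saturation at 30 °C; lower values mean less growth of the strain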
Conditions: S. cerevisiae deletion strains, growth OD, locus YCL069W, strain vba3
In all, about 5,500 compounds went through this assay and about 2,000 (36%) were called active. Another 18% or so got no clear call; they are omitted. Cut-off read from the data, not from the text of the source: active = normalized growth mostly below about 0.91 (no sharp cut-off); inconclusive = no clear call, values can overlap the other calls; inactive = mostly above about 0.92. The list shows a part of the results.
A correct response names exactly one class from active, inactive

Examples with answers:
[[record]]
compound = "CC[C@@H]1C=C/C=C/C[C@H](C)[C@@H](O)[C@](C)(O)C(=O)[C@H](C)[C@@H](O)[C@H](C)C(=O)[C@H](C)[C@@H](O)[C@H](C)/C=C/C(=O)O[C@H]2[C@@H](C)[C@@H](CC1)O[C@@]1(CC[C@@H](C)[C@@H](C[C@H](C)O)O1)[C@@H]2C"
class_name = "inactive"

[[record]]
compound = "CN1CCC(OC(c2ccccc2)c2ccccc2)CC1"
class_name = "inactive"

[[record]]
compound = "COc1cc2nc(N(C)CCCNC(=O)C3CCCO3)nc(N)c2cc1OC (configuration not stated)"
class_name = "inactive"


Q. Given CC#CC1(O)CCC2C3CCC4=CC(=O)CCC4=C3C(c3ccc(N(C)C)cc3)CC21C (configuration not stated) , state the outcome it received in this test.
A. inactive

Q. Another compound to check: CC[C@@H](C(=O)C(C)[C@@H](O)[C@H](C)CCc1ccc(C)c(O)c1C(=O)O)C1OC(CC)(C2CC[C@](O)(CC)[C@H](C)O2)C[C@@H]1C (some centres not stated)
A. active

Q. Another compound to check: C[C@@H]1CC(Cl)CC[C@H]1C(=O)OC(C)(C)C (some centres not stated)
A. inactive

Q. Another compound to check: COC(=O)C1=COC(OC2OC(CO)C(O)C(O)C2O)C2C(C)CC(=O)C12 (configuration not stated)
A. inactive

Q. Another compound to check: CN1C2CCC1CC(OC(c1ccccc1)c1ccccc1)C2 (configuration not stated)
A. inactive

Q. Another compound to check: C[C@]12CCC(=O)C=C1C=CC1C2CC[C@@]2(C)C1CC[C@@]2(O)CCC(=O)O (some centres not stated)
A. inactive

Q. Another compound to check: CN1C2CCC1CC(OC(c1ccccc1)c1ccccc1N)C2 (configuration not stated)
A. inactive

Q. Another compound to check: NCCCS(=O)(=O)O
A. inactive

Q. Another compound to check: O=C1CCC(N2C(=O)c3ccccc3C2=O)C(=O)N1 (configuration not stated)
A. inactive

Q. Another compound to check: CN(C)CCOC(c1ccc(Cl)cc1)c1ccccn1 (configuration not stated)
A. inactive

Q. Another compound to check: CC(=O)S[C@@H]1CC2=CC(=O)CC[C@]2(C)[C@H]2CC[C@@]3(C)[C@@H](CC[C@@]34CCC(=O)O4)C12 (some centres not stated)
A. inactive

Q. Another compound to check: COc1ccc2c(c1)OC1(O)COc3cc(OC)c(OC)cc3C1=C2 (configuration not stated)
A. inactive

Q. Another compound to check: O=S(=O)(O)CCS
A. inactive

Q. Another compound to check: Cc1[nH]c2ccccc2c1CN(C)C
A. inactive
